The reported measurements were obtained from patent US20240254103A9.

Task for the reader: assign each of the following compounds its reported remaining binding at 0.01 µM.
Target: wild-type LRRK2 (Homo sapiens, UniProt Q5S007)
Construct: DNA tag for qPCR detection (not a peptide; the protein part that carries it is not described); made in house; host or cells: HEK 293 cells (the same paragraph also describes T7 phage grown in E. coli BL21)
Sequence (Q5S007 970-2527): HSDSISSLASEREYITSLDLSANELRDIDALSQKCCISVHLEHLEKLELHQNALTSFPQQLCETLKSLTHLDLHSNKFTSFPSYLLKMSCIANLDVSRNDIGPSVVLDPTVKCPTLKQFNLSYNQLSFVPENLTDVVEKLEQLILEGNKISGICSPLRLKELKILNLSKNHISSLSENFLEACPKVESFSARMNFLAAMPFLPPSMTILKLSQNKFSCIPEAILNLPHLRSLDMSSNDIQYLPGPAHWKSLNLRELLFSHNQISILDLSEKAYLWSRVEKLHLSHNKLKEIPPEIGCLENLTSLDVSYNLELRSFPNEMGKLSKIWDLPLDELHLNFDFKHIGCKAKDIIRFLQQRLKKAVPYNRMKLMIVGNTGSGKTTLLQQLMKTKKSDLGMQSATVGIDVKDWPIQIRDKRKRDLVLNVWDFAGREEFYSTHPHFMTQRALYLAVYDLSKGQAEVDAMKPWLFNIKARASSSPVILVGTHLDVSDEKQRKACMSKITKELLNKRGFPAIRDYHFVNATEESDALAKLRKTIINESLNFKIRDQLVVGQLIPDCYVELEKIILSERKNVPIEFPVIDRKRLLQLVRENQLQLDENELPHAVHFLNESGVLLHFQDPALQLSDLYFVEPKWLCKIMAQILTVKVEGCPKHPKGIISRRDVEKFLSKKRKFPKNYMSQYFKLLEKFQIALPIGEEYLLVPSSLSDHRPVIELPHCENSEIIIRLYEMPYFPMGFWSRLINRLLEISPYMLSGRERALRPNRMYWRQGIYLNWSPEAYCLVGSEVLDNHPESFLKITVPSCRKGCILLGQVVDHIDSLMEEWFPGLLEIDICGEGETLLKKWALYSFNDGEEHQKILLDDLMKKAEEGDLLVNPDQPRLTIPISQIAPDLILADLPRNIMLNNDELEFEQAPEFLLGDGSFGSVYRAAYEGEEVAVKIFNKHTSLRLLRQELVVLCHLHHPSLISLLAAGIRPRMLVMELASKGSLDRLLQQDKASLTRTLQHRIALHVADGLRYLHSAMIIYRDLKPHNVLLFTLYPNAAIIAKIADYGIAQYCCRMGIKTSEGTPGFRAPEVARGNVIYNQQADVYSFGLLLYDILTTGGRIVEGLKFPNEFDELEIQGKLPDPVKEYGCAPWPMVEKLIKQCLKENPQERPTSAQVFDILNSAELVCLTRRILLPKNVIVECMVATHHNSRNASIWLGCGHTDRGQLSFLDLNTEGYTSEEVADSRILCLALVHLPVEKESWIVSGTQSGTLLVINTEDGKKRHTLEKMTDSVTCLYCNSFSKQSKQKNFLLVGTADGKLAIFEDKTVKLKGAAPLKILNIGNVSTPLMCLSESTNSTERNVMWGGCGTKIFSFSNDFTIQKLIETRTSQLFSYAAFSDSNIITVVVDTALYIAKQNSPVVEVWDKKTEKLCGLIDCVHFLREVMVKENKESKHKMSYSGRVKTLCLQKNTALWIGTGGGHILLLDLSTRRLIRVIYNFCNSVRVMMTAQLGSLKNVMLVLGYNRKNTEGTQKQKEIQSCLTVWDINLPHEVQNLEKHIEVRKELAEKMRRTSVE
Assay: Inhibitory activity against LRRK2: competition binding to ligand-affinity beads, DNA-tagged kinase quantitated by qPCR
Conditions: 10 nM compound; % of ctrl; read-out: LRRK2(WT) Remaining kinase activity(%) at 10 nM

Prompt: remaining binding at 0.01 µM for COc1cc(C(=O)NCc2cccc(O)c2)ccc1Nc1ncc(Cl)c(-c2cnn(C(C)C)c2)n1 ?
Completion: ≥ 50%

Prompt: Lookup COc1cc(C(=O)Nc2ccccc2)ccc1Nc1ncc(Cl)c(-c2cnn(C(C)C)c2)n1
Completion: < 50%

Prompt: Next compound up: COc1cc(C(=O)NCC2CCOC2)ccc1Nc1ncc(Cl)c(-c2cnn(C(C)C)c2)n1 (stereo not shown)
Completion: ≥ 50%

Prompt: Further, for COc1cc(C(=S)N2CCN(C)CC2)c(F)cc1Nc1ncc(Cl)c(-c2cnn(C(C)C)c2)n1 ?
Completion: < 50%

Prompt: // repeat for COc1cc(C(=O)NCCCn2ccnc2)ccc1Nc1ncc(Cl)c(-c2cnn(C(C)C)c2)n1 and report
Completion: ≥ 50%

Prompt: Also check CCC(NC(=O)c1ccc(Nc2ncc(Cl)c(-c3cnn(C(C)C)c3)n2)c(OC)c1)c1ccccc1 (stereo not shown)
Completion: ≥ 50%

Prompt: Input CC(C)n1cc(-c2nc(Nc3ccc(C(=O)N4CCOCC4)cc3OC(F)F)ncc2Cl)cn1
Completion: < 50%

----------
Molecular target: wild-type LRRK2 (Homo sapiens, UniProt Q5S007)
Construct: DNA tag for qPCR detection (not a peptide; the protein part that carries it is not described); made in house; host or cells: HEK 293 cells (the same paragraph also describes T7 phage grown in E. coli BL21)
Test: Inhibitory activity against LRRK2: competition binding to ligand-affinity beads, DNA-tagged kinase quantitated by qPCR
Conditions: 100 nM compound; % of ctrl; read-out: Remaining kinase activity(%) at 100 nM LRRK2(WT)
Measured endpoint: remaining binding at 0.1 µM

Prompt: What does the record list as remaining binding at 0.1 µM for COc1cc(C(=O)N2CCC(N3CCN(C)CC3)CC2)ccc1Nc1ncc(Cl)c(-c2cnn(C)c2)n1 ?
Completion: < 10%

Prompt: How about COc1cc(C(=O)N2CCC(N3CCOCC3)CC2)ccc1Nc1ncc(Cl)c(-c2cnn(C)c2)n1 ?
Completion: < 10%

Prompt: Entry COc1cc(C(=O)N2CCOCC2)ccc1Nc1ncc(Cl)c(-c2ccccc2)n1 [Comparative Compound 1, reference compound] please
Completion: ≥ 50%

Prompt: Now the compound COc1cc(C(=O)N2CCOCC2)c(F)cc1Nc1ncc(C(F)(F)F)c(-c2cnn(C)c2)n1
Completion: < 10%

Prompt: Same question for COc1cc(C(=O)N2CCC(F)(F)CC2)ccc1Nc1ncc(Cl)c(-c2cnn(C)c2)n1 please.
Completion: < 30%

Prompt: Note, next up: COc1cc(C(=O)N2CCC3(CC2)COC3)ccc1Nc1ncc(Cl)c(-c2cnn(C)c2)n1
Completion: < 50%

Prompt: Please give the result for CCn1cc(-c2nc(Nc3ccc(C(=O)N4CCOCC4)cc3OC)ncc2Cl)cn1 too.
Completion: < 10%

Prompt: Another compound to look at: COc1cc(C(=O)c2ccncc2)ccc1Nc1ncc(Cl)c(-c2cnn(C(C)C)c2)n1
Completion: < 50%

Prompt: Same lookup for COCCn1cc(-c2nc(Nc3ccc(C(=O)N4CCOCC4)cc3OC)ncc2Cl)cn1 , please.
Completion: < 30%

Prompt: Please give the result for COc1cc(C(=O)N2CCN(C(C)=O)CC2)ccc1Nc1ncc(Cl)c(-c2cnn(C)c2)n1 too.
Completion: < 10%

Prompt: Entry to check: COc1cc(C(=O)NC(C)(C)C)ccc1Nc1ncc(Cl)c(-c2cnn(C)c2)n1
Completion: < 30%

Prompt: Would you kindly repeat that for COc1cc(C(=O)N2CCOCC2)ccc1Nc1ncc(Cl)c(-c2cnn(C(C)(C)CC#N)c2)n1 ?
Completion: < 10%

Prompt: Queued: COc1cc(C(=O)N2CCOCC2)ccc1Nc1ncc(Cl)c(-c2cnn(CCO)c2)n1
Completion: < 30%

Prompt: Could you do the same for COc1cc(C(=O)N2CCN(C(C)C)CC2)ccc1Nc1ncc(Cl)c(-c2cnn(C)c2)n1 , please?
Completion: < 10%

Prompt: Entry to check: CCN(CCOC)C(=O)c1ccc(Nc2ncc(Cl)c(-c3cnn(C)c3)n2)c(OC)c1
Completion: < 50%

Prompt: Again, but for COc1cc(C(=O)N2CCOC(C)(C)C2)ccc1Nc1ncc(Cl)c(-c2cnn(C)c2)n1
Completion: < 30%

Prompt: Same for COc1cc(C(=O)N2CCOCC2)ccc1Nc1ncc(Cl)c(-c2cnn(C)c2)n1
Completion: < 30%

Prompt: Same thing, different compound: COc1cc(C(=O)N2CCOCC2)ccc1Nc1ncc(Cl)c(-c2cnn(C3CCOCC3)c2)n1
Completion: < 10%

Prompt: Let us now turn to COc1cc(C(=O)NC2CCN(C)CC2)ccc1Nc1ncc(Cl)c(-c2cnn(C)c2)n1
Completion: < 10%

Prompt: Further, for COc1cc(C(=O)NCC(C)(C)O)ccc1Nc1ncc(Cl)c(-c2cnn(C)c2)n1 ?
Completion: < 50%

Prompt: And for COc1cc(C(=O)N2CCOCC2)ccc1Nc1ncc(C(F)(F)F)c(-c2cnn(C3CCOCC3)c2)n1 ?
Completion: < 50%

Prompt: Record: COc1cc(C(=O)N2CC3(CCO3)C2)ccc1Nc1ncc(Cl)c(-c2cnn(C)c2)n1
Completion: < 30%

Prompt: Input COc1cc(C(=O)N2CCC3(CC2)COC3)ccc1Nc1ncc(Cl)c(-c2cnn(C3CCOCC3)c2)n1
Completion: < 30%

Prompt: Now this one: COc1cc(C(=O)N2CCCC2)ccc1Nc1ncc(Cl)c(-c2cnn(C)c2)n1
Completion: < 30%

Prompt: Next compound up: COc1cc(C(=O)N2CCOCC2)ccc1Nc1ncc(Cl)c(-c2cn[nH]c2)n1
Completion: < 30%

Prompt: Subsequent entry: COCCN(C)C(=O)c1ccc(Nc2ncc(Cl)c(-c3cnn(C)c3)n2)c(OC)c1
Completion: < 30%

Prompt: Same again, this time with CCCn1cc(-c2nc(Nc3ccc(C(=O)N4CCOCC4)cc3OC)ncc2Cl)cn1
Completion: < 10%

Prompt: Another compound: COc1cc(C(=O)N2CCOCC2)ccc1Nc1ncc(Cl)c(-c2cnn(CCC#N)c2)n1
Completion: < 10%

Prompt: For COc1cc(C(=O)N2CCOCC2)c(F)cc1Nc1ncc(Cl)c(-c2cnn(C(C)C)c2)n1 then?
Completion: < 10%

Prompt: Record: COCn1cc(-c2nc(Nc3ccc(C(=O)N4CCOCC4)cc3OC)ncc2Cl)cn1
Completion: < 30%

Prompt: Now this one: COc1cc(C(=O)N2CCOCC2)ccc1Nc1ncc(Cl)c(-c2cnn(C3CC3)c2)n1
Completion: < 30%

Prompt: Would you mind doing COc1cc(C(=O)N2CCOCC2)ccc1Nc1ncc(Cl)c(-c2cnn(C(C)CC#N)c2)n1 (centres unmarked) as well?
Completion: < 10%
